Data origin, for the record: paper PMC2726290

List of pKd values.
Molecular target: T1, hPHD-HD1 complex (hPygo1 PHD 333-402 with hBCL9 HD1) (human, UniProt Q9Y3Y4 333-402; O00512 177-205)
T1 chain 1: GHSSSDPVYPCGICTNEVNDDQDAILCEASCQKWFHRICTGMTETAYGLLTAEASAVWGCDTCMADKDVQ
T1 chain 2: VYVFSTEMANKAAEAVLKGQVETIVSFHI
Test: ITC
No end group written: not given here.
Would you please state pKd, meaning minus log10 of the concentration in mol/L, as a bare number?

ARTK(Me)QTARKSTGGKA [H3K4me1 15-mer histone H3 tail peptide] ... 5.66

Look at this binder and give its reported pKd. GRTKQTARK (dimethyl-lysine at K4) [H3K4me2 9-mer whose A1 was substituted with a glycine]
4.00
